# T1/2 Life per entry
target-entity: T1, 4-1BB (CD137), antigen of the Octet kinetics (UniProt Q07011 24-186, limits assumed)
T1 construct: also called TNFRSF9
assay-details: Octet (BLI), mono-valent binding kinetics
Report as a plain number; the unit min is understood.

huG28.21.G2.1.4 (antibody, human IgG2, kappa, V domains shown, also called huG28.21.1.4) VH: EVQLVQSGAEVKKPGATVKISCKASGFNIKDYYIHWVNQAPGKGLEWIGRIDPEDGDIAYAPKFQDRVTLTVDTSTDTAYLELSSLRSEDTAVYYCTTGNYYAMDFWGQGTTVTVSS VL: QIVLTQSPATLSASPGERVTLSCTASSSVSSSYLHWYQQKPGSSPKLWIYSTSNLASGVPARFSGSGPGTSYTLTISSMEPEDAATYYCHQYHRSPPTFGQGTKLEIKR : 1.8
cAB 137QL.G28.21.G2 (antibody, human IgG2, V domains shown, Chimeric antibody; also called Chimeric G28.21; cAb G28.21.G2) VH: EVQLQQSGAELVRPGASVKLSCTASGFNIKDYYIHWVNQRPEQGLEWIGRIDPEDGDIAYAPKFQDKATLTVDTSSNTAYLHIIGLTSEDTAVYYCTTGNYYAMDFWGQGTSVTVSS VL: QIVLTQSPAIMSASLGERVTMTCTASSSVSSSYLHWYQQKPGSSPKLWIYSTSNLASGVPARFSGSGSGTSYSLTISSMEAEDAATYYCHQYHRSPPTFGSGTKLEIK : 2.2

// next entry
Give the measured T1/2 Life of huF1.1.G2.2.4 (antibody, human IgG2, kappa, V domains shown, also called huF1.1.2.4) VH: QVQLVQSGAEVKKPGASVKVSCKASGYTFTFYTMHWLRQAPGQGLEWIGYINPSSGYTNYNQKFTDRATLTADTSTSTAYMELSSLRSEDTAVYYCARSDGSSSKWYFDVWGQGTTVTVSS VL: EIVLTQSPDFQSATPKEKVTITCRASSSVSYIHWYQQKPGSSPKAWISATSNLASGVPSRFSGSGSGTSYTLTINRVEAEDAATYYCQQWSSNPFTFGQGTKLEIKR .
2.1
